# key: entry, value: OD450 nm (PCSK9 bound to LDLR)
- Measurement Target: T1, recombinant human PCSK9 protein, His-tagged (Immunogen A, hPCSK9-His) (human, UniProt Q8NBP7 31-692, limits assumed, biotin-labelled in the ELISA and blocking assays (Biotin labeling kit))
- T1 construct: also called human PCSK9-His; recombinant hPCSK9-His; not shown: His tag
- Protocol Description: blocking ELISA, biotin-hPCSK9-His on coated LDLR ECD-His; antibody 1.6 nM

| Binder | OD450 nm (PCSK9 bound to LDLR) (OD450 nm) |
| --- | --- |
| 152G2F7, chimeric anti-PCSK9 mAb purified from hybridoma (antibody, V domains shown, From Harbour H2L2 mice: human variable regions, rat constant regions) VH: EVQLVESGGGLVQPGGSLRLSCAASEFTFGGYWMTWVRQAPGKGLEWVANIKQDGSEKYYVDSVKGRFTISRDNAKNSLYLHMNSLRAEDTAVYYCARDRTTMIRGVSLYYYYYGMDVWGQGTAVTVSS VL: EIVLTQSPATLSLSPGERATLSCRASQSVSSYLAWYQQKPGQAPRLLIYDASNRATGIPARFSGSGSGTDFTLTISSLEPEDFAVYYCQQRSNWPLTFGGGTKVEIK | 1.2 |
| 76A1B11, chimeric anti-PCSK9 mAb purified from hybridoma (antibody, V domains shown, From Harbour H2L2 mice: human variable regions, rat constant regions) VH: QVQLVESGGGVVQPGRSLRLSCAATGFTFSIYGMHWVRQAPGKGLEWVAVIWYDGSNKYYADSVKGRFIISRDNSKNTLYLQMNSLRVEDTAVYYCVSDYFGSGNSYYYYGMDVWGQGTTVTVSS VL: DIQMTQSPSSLSASVGDRVTITCRASQVISNYLAWYQQKPGKVPKLLIYTASTLQSGVPSRFSGSGSGADFTLTISSLQPEDVATYYCQKYNSAPYTFGQGTKLEIK | 0.96 |
| 139G1C5, chimeric anti-PCSK9 mAb purified from hybridoma (antibody, V domains shown, From Harbour H2L2 mice: human variable regions, rat constant regions) VH: QVQLQESGPGLVKPSGTLSLTCAVSGGSISRNNWWSWVRQPPGKGLEWIGEIYHSGSTNYNPSLKSRVTISVDKSKNQFSLKLSSVTAADTAVYYCARDLLGIGLDYWGQGTLVTVSS VL: EFVLTQSPATLSLSPGERAILSCRASQSFSSYIAWYQQKPGQAPRLLIYDASNRATGIPARFSGSGSGTDFTLTISSLEPEDFAVYYCQQHSNWMYTFGQGTKLEIK | 0.89 |
| 74C10A8, chimeric anti-PCSK9 mAb purified from hybridoma (antibody, V domains shown, From Harbour H2L2 mice: human variable regions, rat constant regions) VH: QVQLQESGPGLVKPSETLSLTCSVSGGSINTYYWSWIRQPPGKGLEWIGYIYYSGSTNYNPSLKSRVTISVDTSKNQFSLKLTSVTAADTAVYYCARERFTMVRGVMMDYYYYGMDVWGQGTTVTVSS VL: DIQLTQSPSFLSASVGDRVTITCRASQGISSYLAWYQQKPGKAPKLLIYAASTLQSGVPSRFSGSGSGTEFTLTISSLQPEDFATYYCQQLNSYPRTFGQGTKVEIK | 0.97 |

Taken from patent US20180355059A1.
